Values from patent US7659277B2

- Tested target: UniProt:Q00987
- Sequence (Q00987 whole entry): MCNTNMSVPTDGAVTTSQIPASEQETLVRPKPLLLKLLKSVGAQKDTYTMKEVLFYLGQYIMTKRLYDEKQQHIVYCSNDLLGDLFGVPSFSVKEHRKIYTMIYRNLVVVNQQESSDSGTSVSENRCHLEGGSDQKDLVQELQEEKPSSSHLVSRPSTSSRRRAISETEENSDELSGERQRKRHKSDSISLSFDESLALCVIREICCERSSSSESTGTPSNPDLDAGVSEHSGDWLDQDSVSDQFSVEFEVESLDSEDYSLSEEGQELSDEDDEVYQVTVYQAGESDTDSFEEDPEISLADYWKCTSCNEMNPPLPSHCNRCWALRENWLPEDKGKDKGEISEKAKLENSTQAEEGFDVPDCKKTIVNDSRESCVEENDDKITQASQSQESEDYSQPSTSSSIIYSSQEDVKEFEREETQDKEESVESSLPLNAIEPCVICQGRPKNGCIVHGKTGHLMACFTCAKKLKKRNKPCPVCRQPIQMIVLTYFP
- Assay comment: Selectivity (% A in 1 μM), ubiquitin ligase activity of Hmdm2
- Assay type: biochemical
- Conditions used: % activity at 1 μM compound; control is related to 100% activity; HTS protocol; read-out: Selectivity (% A* in 1 μM) Hmdm2
Reported remaining activity at 1 µM values for the following molecules.
Parameter measured: remaining activity at 1 µM (%)

- CC(=O)Nc1ccc(-c2cc3ccccn3c2)cc1: 93
- COc1ccc(CNc2cccc(N(C)C)c2)cc1: 80
- C=CCN1C(=O)NC(=O)/C(=C/c2ccc(F)cc2)C1=O: 99
- Cc1[nH]c(=O)c(C(=O)/C=C/c2ccccc2F)c2c1CCCC2: 98

###

- Test system: HIV-1
- Assay comment: HIV maturation (budding) in virus-like particle assay, HIV-1 p24 antigen ELISA
- Assay type: cell-based
- Conditions used: Human immunodeficiency virus 1, read-out: Budding (3 μM)
Categories are assigned from the measured activity at 3 µM using these intervals: class A (below 50%), class B (50% to below 60%), class C (60% or more)

• O=C(Nc1cccc2c(NC(=O)C3C4CCCCC43)cccc12)C1C2CCCCC21 (stereo not drawn) = class C
• O=[N+]([O-])c1ccc(CN2CCN(c3cccc(Cl)c3)CC2)o1 = class B
• O=c1nc(-c2ccc(Br)cc2)cc(-c2ccc([N+](=O)[O-])cc2)[nH]1 = class A
• CC(C)(C)c1ccc(C2=N/C(=C\c3cccs3)C(=O)O2)cc1 = class B
• O=C1C=CC(=O)N1c1ccccc1Cl = class A
• Cc1cc(O)c(C(=O)/C=C/c2cccc(I)c2)c(=O)o1 = class A

###

// reported log10 of IC50 per item
- Tested target: POSH (Homo sapiens)
- Construct: GST-POSH lot NB81/p.118 3.6 mg/ml; fused on or other part: GST tag, used for detection with anti-GST XL665
- Sequence (Q7Z6J0 1-269 limits assumed): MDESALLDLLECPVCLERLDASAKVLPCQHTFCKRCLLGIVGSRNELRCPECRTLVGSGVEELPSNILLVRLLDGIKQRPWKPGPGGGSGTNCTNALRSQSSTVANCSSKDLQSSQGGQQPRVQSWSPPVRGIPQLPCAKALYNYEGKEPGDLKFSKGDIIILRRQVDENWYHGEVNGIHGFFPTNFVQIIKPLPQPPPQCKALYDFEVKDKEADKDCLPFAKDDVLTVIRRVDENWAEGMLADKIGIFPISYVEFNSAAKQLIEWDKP
- Assay comment: IC50 assay procedure: GST-POSH auto-ubiquitination, homogeneous time-resolved fluorescence (Ub-cryptate / anti-GST XL665)
- Format: biochemical
- Conditions used: ubiquitin ligase activity of POSH; GST-POSH 33 nM, 30 min preincubation
Parameter measured: log10 of IC50 (log10 of the value in nM)

* Oc1c(Br)cc(Br)cc1/C=N/c1ccc(Br)cn1 | 2.85
* O=C(/C=C/c1cccnc1)c1ccc(C(=O)/C=C/c2cccnc2)cc1 | 2.70
* O=C(O)COc1ccc2c(c1)oc(=O)c1ccccc12 | 2.85
* CCCCCCOc1ccc(C=C2C(=O)NC(=S)NC2=O)cc1 | 2.70
* COc1ccc(CC(C)NCc2ccccc2Cl)cc1 (centres unmarked) | 3.00
* C=CCN1C(=O)/C(=C/c2c3ccccc3cc3ccccc23)SC1=S | 2.70
* CC(C)(C)c1ccc(C2=N/C(=C\c3cccs3)C(=O)O2)cc1 | 3.11
* CCCCOc1ccc(NC(=S)N2CCn3c4c(c(=O)c5cc(C)ccc53)CCC42)cc1 (centres unmarked) | 2.00
* O=C1S/C(=C/c2ccc(-c3ccc([N+](=O)[O-])cc3Cl)o2)C(=O)N1c1ccccc1 | 2.85
* O=C1NC(=O)C(=Cc2ccc(-c3cc(Cl)ccc3Cl)o2)C(=O)N1 | 2.30
* Cc1cc(OC(=O)Cn2c(=O)sc3ccccc32)ccc1Cl | 2.60
* O=c1oc2ccccc2c(O)c1C(=S)Nc1ccccc1 | 2.70
* O=C1NC(=O)N(c2ccc(Br)cc2)C(=O)/C1=C/c1ccc(O)cc1 | 2.48
* Cc1ccc(/N=C/c2cccc(O)c2O)cc1C | 2.48
* O=c1/c(=C/c2cccc([N+](=O)[O-])c2O)sc2nc3ccccc3n12 | 2.85
* COc1cc(N/C=C2/C(=O)NC(=S)N(c3ccc(F)cc3)C2=O)cc(OC)c1 | 2.85
* Cc1cc(I)ccc1NCn1nnc2ccccc21 | 2.90
* Oc1ccc2ccccc2c1/C=N/c1ncc(Br)cc1Br | 2.95
* COc1cc(/C=C2\SC(=O)NC2=O)ccc1OCc1ccc(Cl)cc1Cl | 3.00
* COc1ccc(NC(=O)c2cc3cccc(N)c3cc2O)cc1 | 2.48
